# System: Cysteinyl leukotriene receptor (Cavia porcellus)
# Experimental Details: inhibition of the spasmogenic activity of LTD4 in guinea pig parenchymal strips at 10 uM.
Measured Parameter: inhibition (%)

c1ccc2[nH]c(COc3ccc(OCCCc4nnn[nH]4)cc3)nc2c1    42
c1ccc(-c2ccc(COc3cccc(OCCCc4nnn[nH]4)c3)nc2)cc1    22
c1ccc(-c2cccc(COc3ccc(OCCCc4nnn[nH]4)cc3)n2)cc1    50
c1ccc2sc(COc3ccc(OCCCc4nnn[nH]4)cc3)cc2c1    36
c1ccc2sc(COc3ccc(OCCCc4nnn[nH]4)cc3)nc2c1    59
c1cc(OCCCc2nnn[nH]2)cc(OCc2ccc3ccccc3c2)c1    12

A: c1ccc2c(c1)CCC(COc1ccc(OCCCc3nnn[nH]3)cc1)N2 (stereo not drawn)
B: CCOC(=O)c1ccc(COc2ccc(OCCCc3nnn[nH]3)cc2)nc1
Consider entries A and B . Which has the numerically lower inhibition? // caller expects the label of the chosen entry
A
(A: 22%, B: 41%)

P: c1ccc(Oc2cccc(COc3cccc(OCCCc4nnn[nH]4)c3)n2)cc1
Q: c1ccc(COc2ccc(OCCCc3nnn[nH]3)cc2OCc2ccc3ccccc3n2)cc1
Consider entries P and Q . Which has the numerically lower inhibition? // caller expects the label of the chosen entry
P

I: O=C(O)c1ccc(COc2ccc(OCCCc3nnn[nH]3)cc2)nc1
II: c1cc(OCCCc2nnn[nH]2)cc(OCc2cnc3ccccc3c2)c1
Which value of inhibition is greater, the one for I or the one for II ? // caller expects the label of the chosen entry
I

a: c1ccc(COc2cccc(OCCCc3nnn[nH]3)c2)nc1
b: c1ccc(COc2cccc(OCCCc3nnn[nH]3)c2)cc1
Which value of inhibition is greater, the one for a or the one for b ? // caller expects the label of the chosen entry
a
(a: 18%, b: 9%)

1: c1ccc2nc(COc3ccc(OCCCc4nnn[nH]4)cc3)ncc2c1
2: O=C(Nc1ccc2ccccc2n1)c1ccc(OCCCc2nnn[nH]2)cc1
Consider entries 1 and 2 . Which has the numerically lower inhibition? // caller expects the label of the chosen entry
2
(2: 43%, 1: 75%)

a: O=C(NCc1ccc2ccccc2n1)c1ccc(OCCCc2nnn[nH]2)cc1
b: O=C(Nc1ccc(OCCCc2nnn[nH]2)cc1)c1ccc2ccccc2n1
Consider entries a and b . Which has the numerically lower inhibition? // caller expects the label of the chosen entry
a
(a: -3%, b: 4%)
